Tested on: NCI-H226 lung
Experiment: NCI tumour cell line growth inhibition, 48 h
metric.name: TGI

Record excerpt, results attached:
INSERT INTO results (compound, metric_name, observed_measurement) VALUES
  ('Nc1cc2[nH]cnc2c(=O)[nH]1', 'TGI', '> 212 µM'),
  ('COc1nc(C)cc2c(=O)n(-c3ccccc3)n(CC(O)CN3CCN(c4ccc(Cl)cc4)CC3)c(=O)c12 (stereo not given)', 'TGI', '> 50 µM'),
  ('CC(C#N)N(CCc1ccccc1)C(=O)c1ccccc1 (stereo not given)', 'TGI', '> 100 µM'),
  ('CCOC(=O)CCC(NC(=O)OCc1ccccc1)C(=O)NC(CCC(=O)OCC)C(=O)NC(CCC(=O)OCC)C(=O)NNC(=O)OC(C)(C)C (stereo not given)', 'TGI', '> 100 µM');

Please examine the following record next.
Inquiry: Fill in: TGI of O=C1/C(=C/c2ccc(O)cc2)CCC1CNc1ccccc1 (stereo not given) is ___
Reply text: 37.9 µM
